- Tested on: DLD1-WRN-KO cells
- procedure_summary: Proliferation assay DLD1-WRN-KO (CellTiterGlo, off-target effects)
- Format: cell-based
- cond: 96 hours, geometric mean of at least 2
metric: GI50

The reported GI50 of the molecule CC(=O)N1CCN(c2c(C)n(CC(=O)Nc3ccc(C(F)(F)F)cc3)c3nc(-c4cnn(C(F)F)c4)nn3c2=O)CC1 was > 10 µM

The reported GI50 of the molecule Cc1c(N2CCN(C(=O)c3n[nH]c4ccccc34)CC2)c(=O)n2nc(C3=CCOCC3)nc2n1CC(=O)Nc1ccc(C(F)(F)F)cc1 was 8 µM

The reported GI50 of the molecule CC(=O)N1CCN(c2c(C)n(CC(=O)Nc3cc(C)c(C(F)(F)F)cc3Cl)c3nc(C4=CCOCC4)nn3c2=O)CC1 was > 10 µM

The reported GI50 of the molecule CC(=O)N1CCN(c2nc3n(CC(=O)Nc4ccc(Cl)cc4)c(C)c(N4CCN(C(=O)c5[nH]c(=O)[nH]c(=O)c5N)CC4)c(=O)n3n2)CC1 was > 10 µM

The reported GI50 of the molecule Cc1c(N2CCN(C(=O)OCc3ccccc3)CC2)c(=O)n2nc(C3=CCOCC3)nc2n1CC(=O)Nc1ccc(C(F)(F)F)cc1 was 4 µM

The reported GI50 of the molecule CC(=O)N1CCN(c2c(C)n(CC(=O)Nc3ccc(C(F)(F)F)cc3)c3nc(-c4ccccc4)nn3c2=O)CC1 was 7 µM

The reported GI50 of the molecule CC(=O)N1CCN(c2nc3n(CC(=O)Nc4ccc(Cl)cc4)c(C)c(N4CCN(C(=O)c5nc[nH]c5C#N)CC4)c(=O)n3n2)CC1 was > 10 µM

The reported GI50 of the molecule Cc1c(N2CCN(C(=O)c3c[nH]c(=O)cn3)CC2)c(=O)n2nc(N3CCOCC3)nc2n1CC(=O)Nc1ccc(C(F)(F)F)cc1 was > 10 µM

The reported GI50 of the molecule Cc1c(C2CCN(C(=O)c3c(F)ccc(F)c3O)CC2)c(=O)n2nc(C3=CCCCO3)nc2n1CC(=O)Nc1ccc(C(F)(F)F)cc1 was > 10 µM

The reported GI50 of the molecule CCc1c(N2CCN(C(C)=O)CC2)c(=O)n2nc(C3=CCOCC3)nc2n1CC(=O)Nc1ccc(C(F)(F)F)cc1F was > 10 µM

The reported GI50 of the molecule CC(=O)N1CCN(c2c(C)n(CC(=O)Nc3ccc(C(F)(F)F)cc3)c3nc(C4=COCCO4)nn3c2=O)CC1 was > 10 µM

The reported GI50 of the molecule CC(=O)N1CCN(c2c(C)n(CC(=O)Nc3ccc(C(F)(F)F)cc3)c3nc(-c4ccc(F)cc4)nn3c2=O)CC1 was > 10 µM

The reported GI50 of the molecule Cc1c(N2CCN(C(=O)c3ccncc3O)CC2)c(=O)n2nc(C3=CCOCC3)nc2n1CC(=O)Nc1ccc(C(F)(F)F)cc1 was > 10 µM

----------
- Tested on: DLD1-WRN-KO cells
- procedure_summary: Proliferation assay DLD1-WRN-KO (CellTiterGlo, off-target effects)
- Assay type: cell-based
- cond: 96 hours, geometric mean of at least 2
metric: GI50

The reported GI50 of the compound CC(=O)N1CCN(c2c(C)n(CC(=O)Nc3cc(C(F)(F)F)c(Cl)cc3C)c3nc(C4=CCOCC4)nn3c2=O)CC1 was > 10 µM

The reported GI50 of the compound CCc1c(N2CCN(C(=O)c3ncc(F)c4cc[nH]c34)CC2)c(=O)n2nc(C3=CCOCC3)nc2n1CC(=O)Nc1ccc(C(F)(F)F)cc1C was 7 µM

The reported GI50 of the compound CC(=O)N1CCN(c2c(C)n(CC(=O)Nc3cc(F)c(Cl)cc3Cl)c3nc(C4=CCOCC4)nn3c2=O)CC1 was > 10 µM

----------
Could you please report measured IC50 for the items listed next?
- system: WRN helicase (aa N517-P1238) (Homo sapiens)
- Construct: The core helicase motif of the WRN protein (aa N517-P1238) was produced for this assay; His (N); ZZ (N); 3C protease cleavage site (N); virus and BIICs made in SF9)
- procedure_summary: WRN ATPase assay (DNA dependent ATP hydrolysis, ADP-Glo)
- cond: 3 hours pre-incubation, 300 micromolar ATP, FLAP26 DNA; geometric mean of at least 2
Lab book: enter the figure in nM, no units written.

The reported IC50 of the molecule CC(=O)N1CCN(c2c(C)n(CC(=O)Nc3cc(F)c(C(F)(F)F)nc3Cl)c3nc(C4=CCOCC4)nn3c2=O)CC1 [Example 101] was 2000

The reported IC50 of the molecule CC(=O)N1CCN(c2c(C)n(CC(=O)Nc3ccc(Cl)c(Cl)c3)c3nc(-c4ccc(CN(C)C(=O)CCN=[N+]=[N-])cc4)nn3c2=O)CC1 [Example 86] was 70

The reported IC50 of the molecule CC(=O)N1CCN(c2c(C)n(CC(=O)Nc3c(C)cc(C(F)(F)F)cc3Cl)c3nc(C4=CCOCC4)nn3c2=O)CC1 [Example 96] was 800

The reported IC50 of the molecule CC(=O)N1CCN(c2c(C)n(CC(=O)Nc3ccc(C(F)(F)F)cc3)c3nc(C4=CCOCC4)nn3c2=O)CC1 [Example 69] was 500

The reported IC50 of the molecule Cc1cccc(O)c1C(=O)N1CCN(c2c(C)n(CC(=O)Nc3ccc(C(F)(F)F)cc3)c3nc(C4=CCOCC4)nn3c2=O)CC1 [Example 25] was 200

The reported IC50 of the molecule CCc1c(N2CCN(C(=O)c3ccc(F)c(F)c3O)CC2)c(=O)n2nc(C3=CCCCO3)nc2n1CC(=O)Nc1ccc(C(F)(F)F)cc1 [Example 39] was 30

----------
- system: WRN helicase (aa N517-P1238) (Homo sapiens, UniProt Q14191)
- Construct: The core helicase motif of the WRN protein (aa N517-P1238) was produced for this assay; His (N); ZZ (N); 3C protease cleavage site (N); virus and BIICs made in SF9)
- Sequence (Q14191 517-1238): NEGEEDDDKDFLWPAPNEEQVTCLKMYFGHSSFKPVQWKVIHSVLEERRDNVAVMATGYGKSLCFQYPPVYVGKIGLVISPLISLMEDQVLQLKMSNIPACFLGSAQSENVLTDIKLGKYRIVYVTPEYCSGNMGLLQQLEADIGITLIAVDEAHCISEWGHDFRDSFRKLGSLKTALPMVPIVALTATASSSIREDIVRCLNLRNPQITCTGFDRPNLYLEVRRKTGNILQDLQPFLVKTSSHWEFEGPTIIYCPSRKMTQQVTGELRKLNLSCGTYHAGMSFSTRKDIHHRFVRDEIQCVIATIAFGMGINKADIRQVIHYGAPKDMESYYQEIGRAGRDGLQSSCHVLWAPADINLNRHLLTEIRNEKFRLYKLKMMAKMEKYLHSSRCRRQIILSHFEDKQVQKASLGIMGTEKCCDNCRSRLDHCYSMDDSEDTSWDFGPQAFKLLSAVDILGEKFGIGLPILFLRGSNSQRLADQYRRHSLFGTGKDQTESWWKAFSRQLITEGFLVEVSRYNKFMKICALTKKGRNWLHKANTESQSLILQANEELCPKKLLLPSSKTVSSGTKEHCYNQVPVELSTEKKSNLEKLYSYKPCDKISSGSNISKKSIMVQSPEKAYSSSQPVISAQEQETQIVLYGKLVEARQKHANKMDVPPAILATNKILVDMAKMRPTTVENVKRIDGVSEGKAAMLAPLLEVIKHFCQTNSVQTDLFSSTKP
- procedure_summary: WRN ATPase assay (DNA dependent ATP hydrolysis, ADP-Glo)
- cond: 3 hours pre-incubation, 300 micromolar ATP, FLAP26 DNA; geometric mean of at least 2
metric: IC50 (nM)
Lab book: enter the figure in nM, no units written.

The reported IC50 of the compound Cc1c(N2CCN(C(=O)c3ccnc(F)c3O)CC2)c(=O)n2nc(C3=CCOCC3)nc2n1CC(=O)Nc1ccc(C(F)(F)F)cc1 was 60

The reported IC50 of the compound CC(=O)N1CCN(c2c(C)n(CC(=O)Nc3ccc(C(F)(F)F)cc3)c3nc(N4CC=CCC4)nn3c2=O)CC1 was 700

The reported IC50 of the compound CC(=O)N1CCN(c2c(C3CC3)n(CC(=O)Nc3ccc(C(F)(F)F)cc3)c3nc(C4=CCOCC4)nn3c2=O)CC1 was 600

The reported IC50 of the compound CC(=O)N1CCN(c2c(C)n(CC(=O)Nc3cc(C(F)(F)F)c(Cl)cc3C)c3nc(C4=CCOCC4)nn3c2=O)CC1 was 300

The reported IC50 of the compound CCc1c(C2CCN(C(C)=O)CC2)c(=O)n2nc(C3=CCCCO3)nc2n1CC(=O)Nc1ccc(C(F)(F)F)cc1 was 80

The reported IC50 of the compound COC(=O)N1CCN(c2nc3n(CC(=O)Nc4ccc(S(F)(F)(F)(F)F)cc4)c(C)c(N4CCN(C(C)=O)CC4)c(=O)n3n2)CC1 was 300

The reported IC50 of the compound Cc1cc(C(=O)N2CCN(c3c(C)n(CC(=O)Nc4ccc(C(F)(F)F)cc4)c4nc(C5=CCOCC5)nn4c3=O)CC2)c(O)cn1 was 300

The reported IC50 of the compound COC(=O)N1CC=C(c2nc3n(CC(=O)Nc4ccc(Cl)c(C(F)(F)F)c4)c(C)c(N4CCN(C(C)=O)CC4)c(=O)n3n2)CC1 was 200

The reported IC50 of the compound CC(=O)N1CCN(c2c(C)n(CC(=O)Nc3ccc(C(F)(F)F)cc3)c3nc(C4=CCCO4)nn3c2=O)CC1 was 4000

The reported IC50 of the compound CCc1c(N2CCN(C(=O)c3c(O)ccc4nccn34)CC2)c(=O)n2nc(C3=CCOCC3)nc2n1CC(=O)Nc1ccc(C(F)(F)F)cc1Cl was 90

The reported IC50 of the compound CCc1c(N2CCN(C(=O)c3nn(C)c(=O)[nH]3)CC2)c(=O)n2nc(C3=CCC(OC)CC3)nc2n1CC(=O)Nc1ccc(C(F)(F)F)cc1 (stereo not shown) was 60

The reported IC50 of the compound CC(=O)N1CCN(c2c(C)n(CC(=O)Nc3cc(F)c(C(F)(F)F)cc3C)c3nc(C4=CCOCC4)nn3c2=O)CC1 was 300

The reported IC50 of the compound COCC1CCN(c2nc3n(CC(=O)Nc4ccc(C(F)(F)F)cc4)c(C)c(N4CCN(C(C)=O)CC4)c(=O)n3n2)C1 (stereo not shown) was 2000

Just for reference, patent US20260250289A1 is where these values come from.
